Origin of the recorded values: patent US20170267560A1

Property: % Encapsulated (g additive/g dry solid) × 100; scope: individual molecules
Experiment: Thermogravimetric analysis of the quantity of additive encapsulated in microporous or mesoporous material
Conditions: MIL-53 MOF, two steps, 60° C., encapsulation time 1 day
Return type: number; implicit unit %.

molecule: CC(C)=CCCC(C)CC(=O)O (stereo not shown)
units: %
endpoint result: 19.2
//
molecule: CC(C)=CCC/C(C)=C/CO
units: %
endpoint result: 22.1
//
molecule: CCCCN(CCC(=O)OCC)C(C)=O [IR3535, ethyl 3-[acetyl(butyl)amino]propanoate]
units: %
endpoint result: 26.0

Shifting focus to the molecule that follows.
// query Need % Encapsulated (g additive/g dry solid) × 100, item "CC(C)=CCC/C(C)=C/C(=O)O"
// result 17.2

---

Assay: Thermogravimetric analysis of the quantity of additive encapsulated in microporous or mesoporous material
Conditions: MIL-53 MOF, two steps, 60° C., encapsulation time 4 days
recorded metric: % Encapsulated (g additive/g dry solid) × 100
The answer should read as a number with its unit following.

// query Any idea what % Encapsulated (g additive/g dry solid) × 100 was measured for CC(C)=CCC/C(C)=C/CO [Geraniol, geraniol] ?
// result 29.1%

// query What would you report for CC(C)=CCCC(C)CC(=O)O (stereo not shown) [Citronellic acid, citronellic acid] ?
// result 25%

// query And what about the compound CC(C)=CCC/C(C)=C/C(=O)O [Geranic acid, geranic acid] ?
// result 35.3%

// query Continue with CCCCN(CCC(=O)OCC)C(C)=O [IR3535, ethyl 3-[acetyl(butyl)amino]propanoate]
// result 26.1%

---

Test: Thermogravimetric analysis of the quantity of additive encapsulated in microporous or mesoporous material
Details: MIL-53 MOF, two steps, 60° C., encapsulation time 2 days
recorded metric: % Encapsulated (g additive/g dry solid) × 100 (%)
Your answer is read as %, so omit the unit and give the number.

compound: CC(C)=CCC/C(C)=C/CO [Geraniol, geraniol]
units: %
endpoint result: 32.0
--
compound: CC(C)=CCCC(C)CC(=O)O (stereo not shown) [Citronellic acid, citronellic acid]
units: %
endpoint result: 22.5
--
compound: CC(C)=CCC/C(C)=C/C(=O)O [Geranic acid, geranic acid]
units: %
endpoint result: 33.4

// query // % Encapsulated (g additive/g dry solid) × 100 lookup, key: CCCCN(CCC(=O)OCC)C(C)=O [IR3535, ethyl 3-[acetyl(butyl)amino]propanoate]
// result 22.1

---

Recorded measurements of % Encapsulated (g additive/g dry solid) × 100, one per entry
Assay: Thermogravimetric analysis of the quantity of additive encapsulated in microporous or mesoporous material
Conditions: MIL-88 A (Al) MOF, two steps, encapsulation time 3 days
Numbers only; they are read as %.

// worked examples, % Encapsulated (g additive/g dry solid) × 100 included
compound: CC(C)=CCC/C(C)=C/CO
endpoint result: 11.3
//
compound: CC(C)=CCC/C(C)=C/C(=O)O
endpoint result: 10.6
//
compound: CC(C)=CCCC(C)CC(=O)O (stereo not shown)
endpoint result: 8.9

// query % Encapsulated (g additive/g dry solid) × 100 lookup needed for CCCCN(CCC(=O)OCC)C(C)=O [IR3535, ethyl 3-[acetyl(butyl)amino]propanoate] , thanks.
// result 21.0
